Cited source: paper PMC5454392

# experimental_target: T1, CaBdf1 BD2 (GST-tagged, wild-type) (Candida albicans (strain SC5314 / ATCC …, UniProt Q5A4W8))
# T1 chain: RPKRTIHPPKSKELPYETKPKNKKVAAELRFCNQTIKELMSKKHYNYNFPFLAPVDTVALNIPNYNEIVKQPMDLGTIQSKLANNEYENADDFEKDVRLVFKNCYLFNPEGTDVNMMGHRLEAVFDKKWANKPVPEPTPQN
# measurement_description: histone peptide array (Active Motif MODified), 1 uM GST-tagged bromodomain, anti-GST detection, normalized mean intensity
Square brackets hold non-standard residues; d marks the D form. Ends that are not written are not given here. Arg(Me2s) = CN=C(NC)NCCC[C@H](N)C(=O)O; pT = C[C@@H](OP(=O)(O)O)[C@H](N)C(=O)O; pS = N[C@@H](COP(=O)(O)O)C(=O)O; Me2a = not defined here
quantity_name: binding score
# respond with the number and nothing more

Data request: Need binding score, item PRKQLATKAAR(Me2s)K(Me)SAPATGG
Data returned: 0.00296

Data request: Looking for the measured binding score of ARTKQTARKSTGGKAPRKQ (A R T K Q T A R Kme3 S T G G K A P R K Q) , can you help?
Data returned: 0.00222

Data request: Bench note: what binding score did A[Arg(Me2s)][pT]K(Ac)QTARKSTGGKAPRKQ show?
Data returned: 0.00333

Data request: Reported binding score for PRKQLATKAAR(Me2a)K(Me2)[pS]APATGG (reading uncertain) : what is it?
Data returned: 0.00555

Data request: Data request, read-out binding score, for SGRGKGGKGLGKGGAKRHR (S G R G Kac G G K G L G K G G A K R H R) [H4 1-19]
Data returned: 0.0241

Data request: Param item = PDPAK(Ac)SAPAPKK(Ac)GSKKAVT ; retrieve measured binding score.
Data returned: 0.00555

Data request: Requested field: binding score. Item: PDPAK(Ac)SAPAPKKGSKKAVT
Data returned: 0
